tested.system: Adenosine receptor A2b (Homo sapiens) (UniProt P29275)
Sequence (P29275 whole entry): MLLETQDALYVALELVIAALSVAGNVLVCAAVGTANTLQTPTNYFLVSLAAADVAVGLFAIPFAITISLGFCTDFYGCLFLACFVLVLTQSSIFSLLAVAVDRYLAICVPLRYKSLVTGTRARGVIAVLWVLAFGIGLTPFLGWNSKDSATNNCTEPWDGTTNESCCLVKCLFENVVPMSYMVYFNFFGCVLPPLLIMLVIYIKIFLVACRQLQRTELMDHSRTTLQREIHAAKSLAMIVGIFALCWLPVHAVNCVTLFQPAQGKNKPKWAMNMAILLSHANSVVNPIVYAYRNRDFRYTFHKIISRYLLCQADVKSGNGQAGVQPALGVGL
test.description: Displacement of [3H]DPCPX from recombinant human adenosine A2B receptor expressed in HEK293 cells at 0.1 uM
Format: cell-based
readout.kind: inhibition (%)
The figure you give is taken to be in %; do not add the unit.

smiles_data=Cn1c(=O)c2[nH]c(-c3ccc(OCC(=O)Nc4ccc(Br)cc4)cc3)cc2n(C)c1=O readout_kind=inhibition measured_value=90
smiles_data=CCCn1c(=O)c2[nH]c(-c3ccc(OCC(=O)Nc4ncccc4O)cc3)cc2n(C)c1=O readout_kind=inhibition measured_value=71
smiles_data=CCCn1c(=O)c2[nH]c(-c3ccc(OCC(=O)Nc4cccnc4)cc3)cc2n(CCC)c1=O readout_kind=inhibition measured_value=83
smiles_data=CCCn1c(=O)c2[nH]c(-c3ccc(OCC(=O)OCC)cc3OC)cc2n(CCC)c1=O readout_kind=inhibition measured_value=1
smiles_data=COc1cc(-c2cc3c([nH]2)c(=O)n(C)c(=O)n3C)ccc1OCC(=O)Nc1ccc(Br)cc1 readout_kind=inhibition measured_value=78
smiles_data=CCCn1c(=O)c2[nH]c(-c3ccc(OCC(=O)Nc4ccc(Br)cc4)cc3)c(Cl)c2n(CCC)c1=O readout_kind=inhibition measured_value=73
smiles_data=CCCn1c(=O)c2[nH]c(-c3ccc(OCC(=O)Nc4ccc(C5=NC(C)(C)CO5)cc4)cc3)cc2n(CCC)c1=O readout_kind=inhibition measured_value=67
smiles_data=CCCn1c(=O)n(C)c(=O)c2[nH]c(-c3ccc(OCC(=O)O)cc3)cc21 readout_kind=inhibition measured_value=51

From here, focus on the item given below.
Inquiry: Under Adenosine receptor A2b (Homo sapiens) (UniProt P29275): inhibition value of "CCCn1c(=O)c2[nH]c(-c3ccc(OCC(=O)Nc4ccc(CC(=O)OCC)cc4)cc3)cc2n(C)c1=O" ?
Reply text: 35

This collection of values is drawn from ChEMBL document CHEMBL1148617.
